# study target: BCL2 G101V (Homo sapiens, UniProt P10415, G101V)
# assay protocol: TR-FRET competitive binding assay, BCL2 G101V
# condition context: BCL2 G101V; Ki determined from IC50; read-out: TR_FRET EKI_Bcl2 G101V
measurement kind: Ki (nM)

[
  {
    "molecule": "Cc1c(N(C(=O)c2cc(-c3cc4c(cc3C(=O)N3Cc5ccccc5C[C@H]3CN3CCCCC3)CN(C(=O)Cc3ccc(OCCN5CCOCC5)cc3F)CC4)n(C)c2C)c2ccc(O)cc2)cc(C#N)n1C [Example 229]",
    "uom": "nM",
    "Ki": 0.22
  },
  {
    "molecule": "Cc1c(N(C(=O)c2cc(-c3cc4c(cc3C(=O)N3Cc5ccccc5C[C@H]3CN3CCC(C)(C)C3)CN(C(=O)Cc3ccc(OCCN5CCOCC5)cc3F)CC4)n(C)c2C)c2ccc(O)cc2)cc(C#N)n1C",
    "uom": "nM",
    "Ki": 0.3
  },
  {
    "molecule": "Cc1c(N(C(=O)c2cc(-c3cc4c(cc3C(=O)N3Cc5ccccc5C[C@H]3C)CN(C(=O)Cc3ccc(OCCN5CCOC6(CC6)C5)cc3)CC4)n(C)c2C)c2ccc(O)cc2)cc(C#N)n1C",
    "uom": "nM",
    "Ki": 1.1
  }
]

I. Cc1c(C(=O)N(c2ccccc2)c2cnn(C(F)F)c2)cc(-c2cc3c(cc2C(=O)N2Cc4ccccc4C[C@H]2C)CN(C(=O)Cc2ccc(OCCC4CCN(C)CC4)cc2)CC3)n1C
II. Cc1c(C(=O)N(c2ccccc2)c2cnn(C(F)F)c2)cc(-c2cc3c(cc2C(=O)N2Cc4ccccc4C[C@H]2CF)CN(C(=O)Cc2ccc(OCCN4CCOCC4)cc2)CC3)n1C
From the items above, decide which of I and II has the lower Ki reading. Refer to your chosen item by its label in the answer. I
(I: 1.07 nM, II: 5.3 nM)

----------
# study target: BCL2 WT (Homo sapiens (Human), UniProt P10415)
# assay protocol: TR-FRET competitive binding assay, BCL2 WT
# condition context: Ki determined from IC50, read-out: TR_FRET EKI_Bcl2 WT
pKi: −log10 of the molar value.
measurement kind: pKi

Known pKi results, listed for orientation:
[
  {
    "test smiles": "CCOC[C@@H]1Cc2ccccc2CN1C(=O)c1cc2c(cc1-c1cc(C(=O)N(c3ccc(O)cc3)c3cc(C#N)n(C)c3C)c(C)n1C)CCN(C(=O)Cc1ccc(OCCN3CCOCC3)cc1F)C2",
    "measured number": 10.05
  },
  {
    "test smiles": "Cc1cc(OCCN2CCOCC2)c(F)cc1CC(=O)N1CCc2cc(-c3cc(C(=O)N(c4ccc(O)cc4)c4cc(C#N)n(C)c4C)c(C)n3C)c(C(=O)N3Cc4ccccc4C[C@H]3CN3CCCCC3)cc2C1",
    "measured number": 9.74
  },
  {
    "test smiles": "COCc1ccc(CC(=O)N2CCc3cc(-c4cc(C(=O)N(c5ccc(O)cc5)c5cc(C#N)n(C)c5C)c(C)n4C)c(C(=O)N4Cc5ccccc5C[C@H]4C)cc3C2)cc1",
    "measured number": 9.92
  }
]

1. Cc1c(N(C(=O)c2cc(-c3cc4c(cc3C(=O)N3Cc5ccccc5C[C@H]3CN3CCCCC3)CN(C(=O)Cc3ccc(OCCN5CCOCC5)cc3Cl)CC4)n(C)c2C)c2ccc(O)cc2)cc(C#N)n1C
2. Cc1c(N(C(=O)c2cc(-c3cc4c(cc3C(=O)N3Cc5ccccc5C[C@H]3C)CN(C(=O)Cc3ccc(OCCN5CC6(CCS6(=O)=O)C5)cc3)CC4)n(C)c2C)c2ccc(O)cc2)cc(C#N)n1C
From the items above, decide which of 1 and 2 has the lower pKi reading. Refer to your chosen item by its label in the answer. 2
(2: 10.00, 1: 10.30)

----------
# study target: BCLXL WT (Homo sapiens (Human), UniProt Q07817)
# Sequence (Q07817 other isoform, or with tags, fused parts or gaps): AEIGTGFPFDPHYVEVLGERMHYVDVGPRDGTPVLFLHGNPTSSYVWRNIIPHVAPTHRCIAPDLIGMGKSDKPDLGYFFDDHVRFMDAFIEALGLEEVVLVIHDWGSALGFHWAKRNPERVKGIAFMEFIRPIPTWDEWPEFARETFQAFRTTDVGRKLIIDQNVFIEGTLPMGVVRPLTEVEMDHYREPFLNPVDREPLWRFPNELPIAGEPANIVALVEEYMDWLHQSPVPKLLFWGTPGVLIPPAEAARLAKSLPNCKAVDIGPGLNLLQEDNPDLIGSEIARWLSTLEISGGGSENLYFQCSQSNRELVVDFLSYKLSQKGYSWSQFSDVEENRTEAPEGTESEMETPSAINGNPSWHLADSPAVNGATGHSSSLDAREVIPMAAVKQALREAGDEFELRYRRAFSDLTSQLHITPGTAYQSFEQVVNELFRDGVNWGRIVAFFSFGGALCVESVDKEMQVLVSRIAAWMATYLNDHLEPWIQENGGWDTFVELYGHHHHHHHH
pKi: −log10 of the molar value.
measurement kind: pKi

P. COCCn1cc(N(C(=O)c2cc(-c3cc4c(cc3C(=O)N3Cc5ccccc5C[C@H]3C)CN(C(=O)Cc3ccc(OCCN5CCOCC5)cc3)CC4)n(C)c2C)c2ccc(O)cc2)cn1 [Example 143]
Q. Cc1c(N(C(=O)c2cc(-c3cc4c(cc3C(=O)N3Cc5ccccc5C[C@H]3CN3CC[C@@H](F)C3)CN(C(=O)Cc3ccc(OCCN5CCOCC5)cc3F)CC4)n(C)c2C)c2ccc(O)cc2)cc(C#N)n1C [Example 80]
R. Cc1c(C(=O)N(c2ccc(O)cc2)c2cc(C#N)n(C(F)F)c2C)cc(-c2cc3c(cc2C(=O)N2Cc4ccccc4C[C@H]2CN2CCCCC2)CN(C(=O)Cc2ccc(OCCN4CCOCC4)cc2F)CC3)n1C [Example 78]
List from greatest to least pKi. Response field: labels, in requested order. Q, P, R

----------
# study target: BCL2 F104I (Homo sapiens, UniProt P10415, F104I)
# assay protocol: TR-FRET competitive binding assay, BCL2 F104I
# condition context: Ki determined from IC50, read-out: TR_FRET EKI_Bcl2 F104I
measurement kind: Ki (nM)

Known Ki results, listed for orientation:
[
  {
    "molecule": "Cc1c(N(C(=O)c2cc(-c3cc4c(cc3C(=O)N3Cc5ccccc5C[C@H]3CN3CCCCC3)CN(C(=O)Cc3ccc(OCC(C)N5CCOCC5)cc3F)CC4)n(C)c2C)c2ccc(O)cc2)cc(C#N)n1C (single isomer, unassigned) [Example 135]",
    "uom": "nM",
    "Ki": 0.34
  },
  {
    "molecule": "Cc1c(N(C(=O)c2cc(-c3cc4c(cc3C(=O)N3Cc5ccccc5C[C@H]3CN3CCCCC3)CN(C(=O)Cc3ccc(OCCN5C[C@@H](C)O[C@@H](C)C5)cc3)CC4)n(C)c2C)c2ccc(O)cc2)cc(C#N)n1C [Example 98]",
    "uom": "nM",
    "Ki": 0.6
  },
  {
    "molecule": "Cc1c(N(C(=O)c2cc(-c3cc4c(cc3C(=O)N3Cc5ccccc5C[C@H]3CN3CCCCC3)CN(C(=O)Cc3ccc(OCCN5CCOCC5(C)C)cc3)CC4)n(C)c2C)c2ccc(O)cc2)cc(C#N)n1C [Example 148]",
    "uom": "nM",
    "Ki": 0.29
  }
]

a. Cc1c(C(=O)N(c2ccc(O)cc2)c2cc(C#N)n(C3CC3)c2C)cc(-c2cc3c(cc2C(=O)N2Cc4ccccc4C[C@H]2C)CN(C(=O)Cc2ccc(OCCN4CCOCC4)cc2)CC3)n1C [Example 71]
b. Cc1c(N(C(=O)c2cc(-c3cc4c(cc3C(=O)N3Cc5ccccc5C[C@H]3C)CN(C(=O)COc3ccccc3)CC4)n(C)c2C)c2ccc(O)cc2)cc(C#N)n1C [Example 2]
Returns: the argument ( a or b ) having the larger Ki. Refer to your chosen item by its label in the answer. b
(b: 3.08 nM, a: 1.02 nM)

----------
# study target: UniProt P10415
# assay protocol: TR-FRET competitive binding assay, BCL2 WT
# condition context: Ki determined from IC50, read-out: TR_FRET EKI_Bcl2 WT
# Protocol: The relative binding potency of each compound was determined in a competitive binding assay using time resolved-fluorescence resonance energy transfer (TR-FRET). […] The degree of binding or corresponding compound inhibition can be quantified by the TR-FRET signal between the terbium donor and fluorescein acceptor. […] TR-FRET measurements were performed on a Biotek Synergy Neo plate reader. […] The TR-FRET signal was calculated as the emission-ratio at 520 nm over 495 nm. […]
pKi: −log10 of the molar value.
measurement kind: pKi

[
  {
    "test smiles": "COc1ccc(N(C(=O)c2cc(-c3cc4c(cc3C(=O)N3Cc5ccccc5C[C@H]3CN3CCCCC3)CN(C(=O)Cc3ccc(OCCN5CCOCC5)cc3F)CC4)n(C)c2C)c2ccc(O)cc2)cn1",
    "measured number": 10.40
  }
]

1. Cc1c(N(C(=O)c2cc(-c3cc4c(cc3C(=O)N3Cc5ccccc5C[C@H]3CN3CC[C@@H](C)C3)CN(C(=O)Cc3ccc(OCCN5CCOCC5)cc3F)CC4)n(C)c2C)c2ccc(O)cc2)cc(C#N)n1C
2. Cc1cccc(CC(=O)N2CCc3cc(-c4cc(C(=O)N(c5ccc(O)cc5)c5cc(C#N)n(C)c5C)c(C)n4C)c(C(=O)N4Cc5ccccc5C[C@H]4C)cc3C2)c1
From the items above, decide which of 1 and 2 has the lower pKi reading. Refer to your chosen item by its label in the answer. 2

----------
pKi: −log10 of the molar value.
A set of compounds tested on BCLXL WT (Homo sapiens (Human), UniProt Q07817), with measured pKi:
measurement kind: pKi

[
  {
    "compound": "Cc1c(N(C(=O)c2cc(-c3cc4c(cc3C(=O)N3Cc5ccccc5C[C@H]3C)CN(C(=O)C3Cc5ccccc5O3)CC4)n(C)c2C)c2ccc(O)cc2)cc(C#N)n1C (some centres unmarked)",
    "measurement kind": "pKi",
    "measured number": 8.18
  },
  {
    "compound": "Cc1c(C(=O)N(c2ccc(O)cc2)c2cnc3c(cnn3C)c2)cc(-c2cc3c(cc2C(=O)N2Cc4ccccc4C[C@H]2C)CN(C(=O)Cc2ccc(OCCN4CCOCC4)cc2)CC3)n1C",
    "measurement kind": "pKi",
    "measured number": 8.62
  },
  {
    "compound": "Cc1c(N(C(=O)c2cc(-c3cc4c(cc3C(=O)N3Cc5ccccc5C[C@H]3C)CN(C(=O)C(F)(F)c3ccccc3)CC4)n(C)c2C)c2ccc(O)cc2)cc(C#N)n1C",
    "measurement kind": "pKi",
    "measured number": 7.52
  }
]

P. COc1ncc(N(C(=O)c2cc(-c3cc4c(cc3C(=O)N3Cc5ccccc5C[C@H]3C)CN(C(=O)Cc3cccc(N5CC6(CN(C)C6)C5)c3)CC4)n(C)c2C)c2ccccc2)cc1F
Q. Cc1c(N(C(=O)c2cc(-c3cc4c(cc3C(=O)N3Cc5ccccc5C[C@H]3CN3CCC(C)CC3)CN(C(=O)Cc3ccc(OCCN5CCOCC5)cc3F)CC4)n(C)c2C)c2ccc(O)cc2)cc(C#N)n1C
From the items above, decide which of P and Q has the lower pKi reading. Refer to your chosen item by its label in the answer. Q
